system tested: Hfq R16A (rim) (Escherichia coli, UniProt P0A6X3 1-102, R16A)
test summary: filter binding
readout type: Kd (nM)
Answers are plain numbers, in nM.

input: Quick check: Kd of AgvB (structured_RNA) RNA: GGCGAUAACACAACAAUAUCAGUAUCUCAUGCUAUUGCCCGAACCCAUUCGGGCAUUUUU ?
output: 2.7

Every entry's value here was drawn from paper doi:10.1101/2021.04.25.441314.
